protocol_text: Drug metabolism in New Zealand White rabbit liver S9 fraction assessed per 4 mg/ml of protein at 2 mM after 24 hrs by LC-MS/MS analysis in presence of 25 mM UDPGA
Type: ADME, subcellular, Oryctolagus cuniculus
condition_notes: read-out: Drug metabolism
experimental_readout: metabolised at 24 h, 2000 µM (%)
Write the answer as a number in %, unit excluded.

Task item: Reported metabolised at 24 h, 2000 µM for COc1cc(OC)c2c(=O)[nH]c(-c3cc(C)c(OCCO)c(C)c3)nc2c1 : what is it?
Reply: 35.2

---

protocol_text: Drug metabolism in calf liver microsomes assessed per 4 mg/ml of protein at 0.5 mM after 24 hrs by LC-MS/MS analysis in presence of 5 mM UDPGA
Format: ADME, Bos taurus, Microsome
condition_notes: cattle, read-out: Drug metabolism
experimental_readout: metabolised at 24 h, 500 µM
A complete answer gives the number and then names the unit.

Task item: Reported metabolised at 24 h, 500 µM for COc1cc(OC)c2c(=O)[nH]c(-c3cc(C)c(OCCO)c(C)c3)nc2c1 : what is it?
Reply: 56%

---

protocol_text: Drug metabolism in New Zealand White rabbit liver microsomes assessed per mg/ml of protein at 2 mM after 24 hrs by LC-MS/MS analysis in presence of 5 mM UDPGA
Type: ADME, Oryctolagus cuniculus, Microsome
condition_notes: read-out: Drug metabolism
experimental_readout: metabolised at 24 h, 2000 µM (%)
Write the answer as a number in %, unit excluded.

Task item: Reported metabolised at 24 h, 2000 µM for COc1cc(OC)c2c(=O)[nH]c(-c3cc(C)c(OCCO)c(C)c3)nc2c1 : what is it?
Reply: 38.4

---

protocol_text: Drug metabolism in New Zealand White rabbit liver microsomes assessed per mg/ml of protein at 2 mM after 24 hrs by LC-MS/MS analysis in presence of 25 mM UDPGA
Assay type: ADME, Oryctolagus cuniculus, Microsome
condition_notes: read-out: Drug metabolism
experimental_readout: metabolised at 24 h, 2000 µM (%)
Write the answer as a number in %, unit excluded.

Task item: Reported metabolised at 24 h, 2000 µM for COc1cc(OC)c2c(=O)[nH]c(-c3cc(C)c(OCCO)c(C)c3)nc2c1 : what is it?
Reply: 39.7

---

protocol_text: Drug metabolism in New Zealand White rabbit liver microsomes assessed per mg/ml of protein at 0.2 mM after 24 hrs by LC-MS/MS analysis in presence of 5 mM UDPGA
Assay type: ADME, Oryctolagus cuniculus, Microsome
condition_notes: read-out: Drug metabolism
experimental_readout: metabolised at 24 h, 200 µM (%)
Write the answer as a number in %, unit excluded.

Task item: Reported metabolised at 24 h, 200 µM for COc1cc(OC)c2c(=O)[nH]c(-c3cc(C)c(OCCO)c(C)c3)nc2c1 [APABETALONE] : what is it?
Reply: 34.6

---

protocol_text: Drug metabolism in New Zealand White rabbit liver S9 fraction assessed per mg/ml of protein at 0.2 mM after 24 hrs by LC-MS/MS analysis in presence of 5 mM UDPGA
Format: ADME, subcellular, Oryctolagus cuniculus
condition_notes: read-out: Drug metabolism
experimental_readout: metabolised at 24 h, 200 µM
A complete answer gives the number and then names the unit.

Task item: Reported metabolised at 24 h, 200 µM for COc1cc(OC)c2c(=O)[nH]c(-c3cc(C)c(OCCO)c(C)c3)nc2c1 : what is it?
Reply: 22.3%

---

protocol_text: Drug metabolism in New Zealand White rabbit liver S9 fraction assessed per mg/ml of protein at 2 mM after 24 hrs by LC-MS/MS analysis in presence of 5 mM UDPGA
Type: ADME, subcellular, Oryctolagus cuniculus
condition_notes: read-out: Drug metabolism
experimental_readout: metabolised at 24 h, 2000 µM (%)
Write the answer as a number in %, unit excluded.

Task item: Reported metabolised at 24 h, 2000 µM for COc1cc(OC)c2c(=O)[nH]c(-c3cc(C)c(OCCO)c(C)c3)nc2c1 : what is it?
Reply: 17.5

---

protocol_text: Drug metabolism in New Zealand White rabbit liver microsomes assessed per mg/ml of protein at 0.5 mM after 24 hrs by LC-MS/MS analysis in presence of 5 mM UDPGA
Type: ADME, Oryctolagus cuniculus, Microsome
condition_notes: read-out: Drug metabolism
experimental_readout: metabolised at 24 h, 500 µM (%)
Write the answer as a number in %, unit excluded.

Task item: Reported metabolised at 24 h, 500 µM for COc1cc(OC)c2c(=O)[nH]c(-c3cc(C)c(OCCO)c(C)c3)nc2c1 [APABETALONE] : what is it?
Reply: 39.5

---

protocol_text: Drug metabolism in New Zealand White rabbit liver microsomes assessed per 4 mg/ml of protein at 0.5 mM after 24 hrs by LC-MS/MS analysis in presence of 25 mM UDPGA
Type: ADME, Oryctolagus cuniculus, Microsome
condition_notes: read-out: Drug metabolism
experimental_readout: metabolised at 24 h, 500 µM (%)
Write the answer as a number in %, unit excluded.

Task item: Reported metabolised at 24 h, 500 µM for COc1cc(OC)c2c(=O)[nH]c(-c3cc(C)c(OCCO)c(C)c3)nc2c1 : what is it?
Reply: 54.3

---

protocol_text: Drug metabolism in New Zealand White rabbit liver S9 fraction assessed per mg/ml of protein at 0.5 mM after 24 hrs by LC-MS/MS analysis in presence of 5 mM UDPGA
Assay type: ADME, subcellular, Oryctolagus cuniculus
condition_notes: read-out: Drug metabolism
experimental_readout: metabolised at 24 h, 500 µM

Task item: Reported metabolised at 24 h, 500 µM for COc1cc(OC)c2c(=O)[nH]c(-c3cc(C)c(OCCO)c(C)c3)nc2c1 : what is it?
Reply: 23.2%

Taken from ChEMBL document CHEMBL2390913.
